Where do the numbers come from? From patent US20160264568A1.

# TARGET OR TEST SYSTEM: human kinase Mps-1 (Homo sapiens)
# Construct: N-terminally GST-tagged human full length recombinant Mps-1 kinase; GST (N); purchased Invitrogen, Karslruhe, Germany PV4071
# Sequence (P33981 1-857): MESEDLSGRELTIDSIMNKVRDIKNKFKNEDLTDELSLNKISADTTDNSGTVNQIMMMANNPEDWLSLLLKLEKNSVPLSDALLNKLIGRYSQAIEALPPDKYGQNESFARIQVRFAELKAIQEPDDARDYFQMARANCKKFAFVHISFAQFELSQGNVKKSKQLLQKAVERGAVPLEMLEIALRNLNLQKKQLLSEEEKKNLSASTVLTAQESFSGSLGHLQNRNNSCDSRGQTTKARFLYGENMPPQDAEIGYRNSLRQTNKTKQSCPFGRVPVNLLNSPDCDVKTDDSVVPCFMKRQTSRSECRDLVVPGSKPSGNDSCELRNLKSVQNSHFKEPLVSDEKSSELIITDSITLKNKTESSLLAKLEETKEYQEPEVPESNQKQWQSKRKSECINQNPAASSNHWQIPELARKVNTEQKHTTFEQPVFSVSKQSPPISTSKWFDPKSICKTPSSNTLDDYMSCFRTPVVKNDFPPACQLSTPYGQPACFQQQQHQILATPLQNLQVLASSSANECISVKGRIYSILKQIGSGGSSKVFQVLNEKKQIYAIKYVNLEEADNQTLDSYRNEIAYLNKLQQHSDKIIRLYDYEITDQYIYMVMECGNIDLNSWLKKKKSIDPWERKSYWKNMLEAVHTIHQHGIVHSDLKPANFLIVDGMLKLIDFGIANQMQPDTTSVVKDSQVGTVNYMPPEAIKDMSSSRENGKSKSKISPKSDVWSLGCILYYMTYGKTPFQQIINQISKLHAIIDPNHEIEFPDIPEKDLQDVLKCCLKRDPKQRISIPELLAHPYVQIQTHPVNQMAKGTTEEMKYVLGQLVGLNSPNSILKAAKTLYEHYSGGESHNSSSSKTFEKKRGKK
# EXPERIMENT: Mps-1 kinase assay (TR-FRET)
# Type: biochemical
# SETUP CONDITIONS: 2 mM ATP; read-out: Mps-1 Inhibition, IC50 (Assay with 2 mM ATP)
TEST READOUT: pIC50
pIC50 here: minus log base 10 of the concentration, concentration in moles per litre.

Input line: What value of pIC50 has been reported for the following compound? COc1cc2c(cc1Nc1nc3ccc(-c4ccc(NC(=O)[C@H](C)c5ccc(F)cc5)cc4)cn3n1)CCS2(=O)=O
Output line: 8.80
